target: P. aeruginosa LysRS (Pseudomonas aeruginosa); experiment: SPA-based tRNA aminoacylation assay
Sequence (Q9HXU0 whole entry): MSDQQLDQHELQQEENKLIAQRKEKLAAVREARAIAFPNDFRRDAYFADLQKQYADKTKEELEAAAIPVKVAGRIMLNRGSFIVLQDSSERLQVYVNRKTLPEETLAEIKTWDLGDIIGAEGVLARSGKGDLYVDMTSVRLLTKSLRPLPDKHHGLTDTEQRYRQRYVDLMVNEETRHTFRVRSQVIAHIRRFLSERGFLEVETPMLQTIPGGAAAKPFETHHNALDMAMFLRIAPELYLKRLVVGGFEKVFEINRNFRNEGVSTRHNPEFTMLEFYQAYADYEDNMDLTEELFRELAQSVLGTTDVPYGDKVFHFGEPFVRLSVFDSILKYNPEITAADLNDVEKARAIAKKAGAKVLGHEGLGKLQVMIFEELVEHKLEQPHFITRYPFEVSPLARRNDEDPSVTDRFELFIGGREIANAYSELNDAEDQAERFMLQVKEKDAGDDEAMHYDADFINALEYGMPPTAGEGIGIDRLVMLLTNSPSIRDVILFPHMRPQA
Property Measured: IC50 (µM)
Write the number in µM without appending the unit.

Find the recorded IC50 belonging to C=CC1=C(C)/C(=C/c2[nH]c(Cc3[nH]c(/C=C4\NC(=O)C(C)=C4C=C)c(C)c3CCC(=O)O)c(CCC(=O)O)c2C)NC1=O and report it.
17

====

target: P. aeruginosa LysRS (Pseudomonas aeruginosa); assay: Binding mode; type: biochemical; conditions: read-out: mean Ki; calculated from IC50 values determined at 75 μM lysine and 2.5 mM ATP; multiple determinations
Property Measured: Ki
Hi, when you answer, please include the unit after the number. Thanks!

Reported Ki, compound O=C(CCCCCCCCC(=O)N/N=C/c1ccc([N+](=O)[O-])o1)N/N=C/c1ccc([N+](=O)[O-])o1 : ____
3.4 µM
